measurementNotes: Lethal dose was evaluated in HIT 100R cells
Format: toxicity, cell-based
runParameters: human, read-out: LC50 (the source's name)
propertyLabel: CC50 (µM)

- O=C1O[C@@H]2[C@@H](O)CO[C@]2(O)[C@@]1(O)C(C[N+](=O)[O-])c1ccc(Cl)cc1 (some centres not stated): 7.9
- CCCCCCCCCCCCCCCC(=O)OC[C@@H](O)[C@H]1OC(=O)[C@]2(O)CCC(O)O[C@]12OC (some centres not stated): 126

###

Recorded measurements of CC50, one per entry
measurementNotes: Lethal dose was evaluated in parental HIT cells
Format: toxicity, cell-based
runParameters: read-out: LC50 (the source's name)
propertyLabel: CC50

* O=C1O[C@@H]2[C@@H](O)CO[C@]2(O)[C@@]1(O)C(C[N+](=O)[O-])c1ccc(Cl)cc1 (some centres not stated) | 5.6 µM
* CCCCCCCCCCCCCCCC(=O)OC[C@@H](O)[C@H]1OC(=O)[C@]2(O)CCC(O)O[C@]12OC (some centres not stated) | 100 µM
